Attribution: the supplement of paper PMC9233669

Below, each entry is listed with its recorded self-aminoacylation.
# Tested on: biotinyl-Leu-oxazolone
# EXPERIMENT SUMMARY: self-aminoacylation, catalytic enhancement (BLO) (fold over background); higher = more active; k-Seq, kA / k0A0; sequences stand for … in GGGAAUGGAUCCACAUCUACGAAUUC…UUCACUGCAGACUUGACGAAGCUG
Fewer inactive variants are shown than the library holds.
Field format: numeric only.

CCACCGUUCAAGCAAUCGGUC [Fam1B.1 aminoacylation ribozyme variant] :: 0.983
AUUCACAUAGGUCAUCGGGAG [Fam2.2 aminoacylation ribozyme variant] :: 0.985

Proceed to the following item.
// query With biotinyl-Leu-oxazolone as the test system, provide measured self-aminoacylation for this sequence: CCAUACUGCAAGCAAUCGGUC [Fam1B.1 aminoacylation ribozyme variant]
// result 0.996
